Items are presented alongside their recorded Kd.
testTarget: HLA-B*07:02
experimentDescription: IEDB peptide-MHC binding, purified MHC/competitive/radioactivity; filed as Kd, often an IC50 or EC50 that approximates it; bounds were set here for any values at or beyond the usual limits of such assays
testParameters: source organism: Dengue virus 2 Jamaica/1409/1983
State the answer as a number, implicitly in nM.

Complete the entry with Kd for MVSILASSL
1010

Complete the entry with Kd for IPTAMAFHL
83.1

Complete the entry with Kd for LARVGRERL
298

----------
testTarget: HLA-B*53:01
experimentDescription: IEDB peptide-MHC binding, purified MHC/competitive/radioactivity; filed as Kd, often an IC50 or EC50 that approximates it; bounds were set here for any values at or beyond the usual limits of such assays
testParameters: source organism: Vaccinia virus WR
observationType: Kd (µM)
State the answer as a number, implicitly in µM.

KPVSDLYTSM :: 0.0566
SPEGEETII :: 0.27

Complete the entry with Kd for YPDLNFDNTY
0.0222

Complete the entry with Kd for YPSMFTLRHI
0.000943

Complete the entry with Kd for LPESDLDKVY
0.513
